Tested on: paddy rice
assay.text: Submergence soil treatment test (4), phytotoxicity
Type: in vivo
experimental.parameters: dosage 1 g a.i./10 are, twenty days after treatment
property: Phytotoxicity to paddy rice

Item: CCn1ncc(C(=O)c2cc(C)c3c(c2C)C(C)(C)CCS3(=O)=O)c1OS(=O)(=O)c1ccc(OC)cc1 [Compound 14] | System: paddy rice | Phytotoxicity to paddy rice: 0 (100)

New cases:
The reported Phytotoxicity to paddy rice value, paddy rice, for CCn1ncc(C(=O)c2cc(C)c3c(c2C)C(C)(C)CCS3(=O)=O)c1OS(=O)(=O)c1ccccc1C [Compound 16] reads 0 (100)

Phytotoxicity to paddy rice for paddy rice with input CCn1ncc(C(=O)c2ccc(S(C)(=O)=O)c(C(=O)OC)c2Cl)c1O [Comp'd A, reference compound] equals 0 (100)

# CCCCS(=O)(=O)Oc1c(C(=O)c2cc(C)c3c(c2C)C(C)(C)CCS3(=O)=O)cnn1CC [Compound 10] with paddy rice: Phytotoxicity to paddy rice is 0 (100)

// returns Phytotoxicity to paddy rice for CCCCCCCCS(=O)(=O)Oc1c(C(=O)c2cc(C)c3c(c2C)C(C)(C)CCS3(=O)=O)cnn1CC [Compound 11] with paddy rice; value = 0 (100)
